Value source: paper PMC11528320

Test system: HEK293 cells
Assay: HEK293 cell viability (resazurin) assay
Assay type: cell-based, Human
Conditions: ratio of HEK293 IC50 (or relative IC50) to P. falciparum 3D7 IC50
Exercise: for every item that follows, state its recorded SI, HEK293/3D7.

Q) Name the recorded SI, HEK293/3D7 of the item "Cn1cc(NC(=O)c2cc(NC(=O)c3ccc(/C=C/c4ccc(C(F)(F)F)cc4)cc3)cn2C)cc1C(=O)NCCN1CCOCC1.O=C(O)C(F)(F)F" in your answer.
A) >53

Q) Using known records, supply SI, HEK293/3D7 for "Cn1cc(NC(=O)c2cc(NC(=O)c3ccc(/C=C/c4ccc(F)cc4)cc3)cn2C)cc1C(=O)NCCC(=N)N.O=C(O)C(F)(F)F"
A) >75.1

Q) For "COc1cccc(/C=C/c2ccc(C(=O)Nc3cc(C(=O)Nc4cc(C(=O)NCCC(=N)N)n(C)c4)n(C)c3)cn2)c1.O=C(O)C(F)(F)F.O=C(O)C(F)(F)F" , write its SI, HEK293/3D7.
A) > 335.8

Q) Please report the measured SI, HEK293/3D7 for "COc1ccc(/C=C/c2ccc(C(=O)Nc3cc(C(=O)Nc4cc(C(=O)NCCC(=N)N)n(C)c4)n(C)c3)cc2)cc1.O=C(O)C(F)(F)F"
A) >108.9

Q) Look up and state reported SI, HEK293/3D7 for "Cn1cc(NC(=O)c2cc(NC(=O)c3ccc(NC(=O)c4ccc(F)cc4)cc3)cn2C)cc1C(=O)NCCC(=N)N.O=C(O)C(F)(F)F"
A) >192.9

Q) Identify SI, HEK293/3D7 associated with the molecule "COc1cccc(/C=C/c2ccc(C(=O)Nc3cc(C(=O)Nc4cc(C(=O)NCCN(C)C)n(C)c4)n(C)c3)cc2)c1.O=C(O)C(F)(F)F"
A) >183.7

Q) Name the recorded SI, HEK293/3D7 of the molecule listed here: "CN(C)CCCNC(=O)c1cc(NC(=O)c2cc(NC(=O)c3cc(NC(=N)c4cc5ccccc5cn4)cn3C)cn2C)cn1C.O=C(O)C(F)(F)F"
A) >219.7
